# credit: patent US20150239980A1

- Tested target: T1, human MCAM (melanoma cell adhesion molecule) expressed on transfected CHO cells (human, UniProt P43121 24-646)
- T1 construct: also called hMCAM; CD146
- T1 chain: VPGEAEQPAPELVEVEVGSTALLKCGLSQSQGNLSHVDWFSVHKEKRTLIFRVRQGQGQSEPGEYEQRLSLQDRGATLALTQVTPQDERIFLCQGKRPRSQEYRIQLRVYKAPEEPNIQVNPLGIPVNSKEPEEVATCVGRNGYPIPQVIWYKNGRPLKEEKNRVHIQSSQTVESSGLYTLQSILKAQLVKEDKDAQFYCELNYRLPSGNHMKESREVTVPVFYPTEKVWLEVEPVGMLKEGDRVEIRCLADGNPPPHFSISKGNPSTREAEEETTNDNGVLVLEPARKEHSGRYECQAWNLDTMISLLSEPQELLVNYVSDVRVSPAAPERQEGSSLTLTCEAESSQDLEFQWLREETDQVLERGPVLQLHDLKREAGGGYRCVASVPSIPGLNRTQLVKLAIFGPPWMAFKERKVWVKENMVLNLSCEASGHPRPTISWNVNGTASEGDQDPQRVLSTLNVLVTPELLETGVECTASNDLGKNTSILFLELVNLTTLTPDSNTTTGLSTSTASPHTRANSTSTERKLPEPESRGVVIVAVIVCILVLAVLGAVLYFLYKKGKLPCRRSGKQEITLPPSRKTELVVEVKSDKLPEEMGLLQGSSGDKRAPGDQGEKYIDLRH
- Assay overview: flow cytometry, human MCAM CHO cells preincubated with antibody, competitor recombinant human laminin 411 at 20 ug/ml
Endpoint: IC50 (µg/mL)
The reply should be a number in µg/mL, with the unit left off.

Worked examples, 2 binders total:
# Binder, Endpoint, Output unit, Measured value
records = [
    ("mouse anti-human MCAM monoclonal antibody clone 1749.1.3 (antibody, V domains shown, mouse hybridoma antibody; also called rodent 1749; murine 1749.1.3 anti-MCAM antibody) VH: DVKLVESGGDLVKPGGSLKLSCAASGFTFSSYIMSWVRQTPEKRLEWVATISSGGSSTYYPDSVKGRFTISRDNAKNTLYLQMSSLKSEDTAMYYCTRDDDYDVKVFAYWGQGTLVTVSA VL: DIVMSQSPSSLAVSAGEKVTMNCKSSRSLLNSRIRKNYLAWYQQKPGQSPKLLIYWASTRESGVPDRFTGSGSGTDFTLTISSVQAEDLAVYYCKQSYNLLTFGAGTKLELK", "IC50", "µg/mL", 0.545),
    ("mouse anti-human MCAM monoclonal antibody clone 1415.1.1 (antibody, V domains shown, mouse hybridoma antibody) VH: QVQLQQPGAELVQPGAPVKLSCKASGYIFTSYWMNWVKQRPGRGLEWIGRIDPSDSKIHYNQKFKDKATLTVDRSSSTAYIQLGSLTSEDSAVYYCAKEGGLRRGDYAMDYWGQGTSVTVSS VL: DIVMTQSPATLSVTPGDRVSLSCRASQSISDYLHWYQQKSHESPRLLIKYASQSISGIPSRFSGSGSGSDFTLSINSVEPEDVGVYYCQNGHNFPRTFGGGTKLEIK", "IC50", "µg/mL", 0.307),
]

I am curious: what IC50 value has been reported for mouse anti-human MCAM monoclonal antibody clone 1174.1.3 (antibody, V domains shown, mouse hybridoma antibody) VH: QIQLVQSGPELKKPGETVKISCKASGYTFTNYGMNWVKQAPGKGLKWMGWINTYTGEPTYADDFKGRFALSLETSASTAYLQINNLKNEDMATYFCARYRYNKYERAMDYWGQGTSVTVSS VL: DIVLTQSPASLAVSLGQRATISCRASKSVSTSGYSYMYWYQQKPGQPPKLLIYLASNLESGVPARFSGSGSGTDFTLNIHPVEEEDAATYYCQHSRELPFTFGSGTKLEIK ?
0.469
